Tested on: HT-29 cells (colorectal adenocarcinoma)
method-description: Inhibition of cancer cell proliferation, HT-29 (CellTiterGlo, 72 hours)
Assay type: cell-based
run-parameters: Homo sapiens
Method: Measurement of Inhibition of Cancer Cell Proliferation (HT-29/Colorectal Adenocarcinoma) The following protocol used an HT-29 cell line, which cell line is a model for colorectal adenocarcinoma. […] A white sealing tape was applied to the bottom of the plate, and the plate was read in a luminescence plate reader. […] 50 μl CellTiterGlo was added per well, and the plate was read in a luminescence plate reader after 10 min. […] GI50 was then calculated by GraphPad Prism.

{"columns": ["record-smiles", "measurement-target", "GI50"],
 "data": [
  ["C=CC(=O)Nc1cc(C)ccc1Nc1nc(Nc2cc(OCCO)ncc2C)ncc1C(F)(F)F", "HT-29 cells (colorectal adenocarcinoma)", "0.101 to 0.5 µM"],
  ["C=CC(=O)Nc1cc(CN2CCN(C(=O)c3cccnc3)CC2)ccc1Nc1nc(Nc2cc(OC)ncc2C)ncc1C(F)(F)F", "HT-29 cells (colorectal adenocarcinoma)", "< 0.1 µM"],
  ["C=CC(=O)Nc1ccccc1Nc1nc(Nc2cc(OC)nc(N3CCN(C(C)=O)CC3)c2)ncc1C(F)(F)F", "HT-29 cells (colorectal adenocarcinoma)", "< 0.1 µM"],
  ["C=CC(=O)Nc1cc(C)ccc1Nc1nc(Nc2ncc(F)c(OC)n2)ncc1C(F)(F)F", "HT-29 cells (colorectal adenocarcinoma)", "0.501 to 0.999 µM"]
]}

###

measurement-target: MEK1 activated ERK1 (Homo sapiens)
Construct: purchased Millipore (Billerica, Mass.) 14-439-K
method-description: Omnia continuous-read kinase assay for potency against MEK1 activated ERK1
Format: biochemical
run-parameters: MEK1 activated ERK1, ATP at KM; read-out: ERK1 Omnia WT ATP KM IC50
The reader will find reported IC50 values listed item by item below.

{"columns": ["compound", "IC50"],
 "data": [
  ["CC(=O)N1CCC[C@H](Nc2ncc(C(F)(F)F)c(Nc3ccccc3NC(=O)CCl)n2)C1", "101 to 500 nM"],
  ["C=CC(=O)Nc1cc(C)ccc1Nc1nc(N[C@H]2CCN(S(=O)(=O)C=C)C2)ncc1C(F)(F)F", "501 to 999 nM"],
  ["C=CC(=O)Nc1ccccc1Nc1nc(Nc2cc(OC)ccc2C)ncc1C(F)(F)F", "101 to 500 nM"],
  ["C=CC(=O)N(C)c1ccccc1Nc1nc(N[C@@H]2CCC[C@H](C(N)=O)C2)ncc1Cl (racemic)", "501 to 999 nM"],
  ["C=CC(=O)Nc1ccccc1Nc1nc(Nc2cc(C(N)=O)ccc2C)ncc1C", "101 to 500 nM"],
  ["C=CC(=O)Nc1ccc(C)cc1Nc1nc(NC2CCC(=O)CC2)ncc1C(F)(F)F", "101 to 500 nM"],
  ["C=CC(=O)Nc1ccccc1Nc1nc(Nc2ccc(NS(C)(=O)=O)cc2OC)ncc1Cl", "101 to 500 nM"],
  ["C=CC(=O)Nc1cc(OC)ccc1Nc1nc(Nc2ccc(N3CCC[C@H]3CO)cc2C#N)ncc1Cl", "501 to 999 nM"],
  ["C=CC(=O)Nc1ccccc1Nc1nc(N[C@H]2CC[C@H](O)CC2)ncc1Cl", "101 to 500 nM"],
  ["C=CC(=O)Nc1cc(C)ccc1Nc1nc(Nc2cc(OC)nc(OC)c2)ncc1C(F)(F)F", "101 to 500 nM"],
  ["C=CC(=O)Nc1ccccc1Nc1nc(Nc2cc(C(=O)NCCO)c(F)cc2C)ncc1C(F)(F)F", "101 to 500 nM"],
  ["C=CC(=O)Nc1ccccc1Nc1nc(Nc2ccc(F)cc2OC)ncc1Cl", "101 to 500 nM"],
  ["C=CC(=O)Nc1ccccc1Nc1nc(Nc2cc(C(N)=O)c(OCCCNC(=O)CCCC(=O)NCCCOCCOCCOCCCNC(=O)CCCC[C@@H]3SC[C@@H]4NC(=O)N[C@@H]43)cc2C)ncc1Cl", "101 to 500 nM"],
  ["C=CC(=O)Nc1ccccc1Nc1nc(Nc2cc(OC)nc(N3CCCCC3)c2)ncc1C(F)(F)F", "101 to 500 nM"]
]}

###

measurement-target: MEK1 activated ERK1 (Homo sapiens, UniProt P27361)
Construct: purchased Millipore (Billerica, Mass.) 14-439-K
Sequence (P27361 whole entry): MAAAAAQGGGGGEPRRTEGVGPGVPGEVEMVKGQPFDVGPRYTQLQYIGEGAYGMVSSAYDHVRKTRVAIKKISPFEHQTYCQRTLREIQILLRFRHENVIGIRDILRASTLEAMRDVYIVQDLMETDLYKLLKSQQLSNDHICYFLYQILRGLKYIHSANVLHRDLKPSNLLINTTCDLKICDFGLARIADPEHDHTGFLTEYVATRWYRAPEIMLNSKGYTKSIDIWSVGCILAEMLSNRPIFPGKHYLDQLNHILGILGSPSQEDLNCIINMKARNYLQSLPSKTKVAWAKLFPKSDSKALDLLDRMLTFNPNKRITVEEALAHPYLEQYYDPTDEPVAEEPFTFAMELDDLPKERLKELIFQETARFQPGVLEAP
method-description: Omnia continuous-read kinase assay for potency against MEK1 activated ERK1
Type: biochemical
run-parameters: ATP at KM, WT

{"columns": ["compound", "IC50"],
 "data": [
  ["C=CC(=O)Nc1cc(C)ccc1Nc1nc(Nc2cc(OCCO)ncc2C)ncc1C(F)(F)F", "101 to 500 nM"],
  ["C=CC(=O)Nc1cc(CN2CCN(C(=O)c3cccnc3)CC2)ccc1Nc1nc(Nc2cc(OC)ncc2C)ncc1C(F)(F)F", "< 100 nM"],
  ["C#CC(=O)Nc1cc(C)ccc1Nc1nc(Nc2cc(OC)ncc2C)ncc1C(F)(F)F", "101 to 500 nM"],
  ["C=CC(=O)Nc1cc(O[C@H](C)C(=O)N2CCN(S(C)(=O)=O)CC2)ccc1Nc1nc(Nc2cc(OC)ncc2C)ncc1C(F)(F)F", "< 100 nM"],
  ["C=CC(=O)Nc1cc(C)ccc1Nc1nc(Nc2cc(OC)ncc2CF)ncc1C(F)(F)F", "> 1000 nM"],
  ["C=CC(=O)Nc1cc(C)c(F)cc1Nc1nc(Nc2nc(OC)ncc2C)ncc1C(F)(F)F", "< 100 nM"],
  ["C=CC(=O)Nc1cc(OCCN2CCN(C(C)=O)CC2)ccc1Nc1nc(Nc2cc(OC)ncc2C)ncc1C(F)(F)F", "< 100 nM"],
  ["C=CC(=O)Nc1cc(C)ccc1Nc1nc(Nc2cc(OC)ncc2Cl)ncc1C(F)(F)F", "101 to 500 nM"],
  ["C=CC(=O)Nc1cc(C)ccc1Nc1nc(Nc2cc(C(F)(F)F)nn2C)ncc1C(F)(F)F", "> 1000 nM"],
  ["C=CC(=O)Nc1cc(C)ccc1Nc1nc(Nc2ccnc3ccccc23)ncc1C(F)(F)F", "101 to 500 nM"],
  ["C=CC(=O)Nc1cc(CN2CCN(C(=O)c3cccnc3)CC2)ccc1Nc1nc(Nc2nc(OC)ncc2C)ncc1C(F)(F)F", "101 to 500 nM"],
  ["C=CC(=O)Nc1cc(O[C@H](C)C(=O)N2CCN(C(C)=O)CC2)ccc1Nc1nc(Nc2cc(OC)ncc2C)ncc1C(F)(F)F", "< 100 nM"],
  ["C=CC(=O)Nc1c(Nc2nc(Nc3cc(OC)ncc3C)ncc2OC)cccc1OCc1nccs1", "> 1000 nM"],
  ["C=CC(=O)Nc1cc(C)ccc1Nc1nc(Nc2cc(OC)ncc2CC)ncc1C(F)(F)F", "101 to 500 nM"],
  ["C=CC(=O)Nc1cc(C)ccc1Nc1nc(Nc2cc(OC)nn2C)ncc1C(F)(F)F", "501 to 999 nM"],
  ["C=CC(=O)Nc1cc(C)ccc1Nc1nc(Nc2nc(OC)ncc2C#N)ncc1C(F)(F)F", "501 to 999 nM"],
  ["C=CC(=O)Nc1cc(C)ccc1Nc1nc(Nc2cc(OC)ncc2CO)ncc1C(F)(F)F", "> 1000 nM"],
  ["C=CC(=O)Nc1cc(C)ccc1Nc1nc(Nc2c[nH]c(=O)cc2C)ncc1C(F)(F)F", "101 to 500 nM"],
  ["C=CC(=O)Nc1ccc(OCC(N)=O)cc1Nc1nc(NC2CCOCC2)ncc1C(F)(F)F", "> 1000 nM"],
  ["C=CC(=O)Nc1cc(C)ccc1Nc1nc(Nc2nc(OC)ncc2C(F)(F)F)ncc1C(F)(F)F", "101 to 500 nM"],
  ["C=CC(=O)Nc1cc(CN2CCOCC2)ccc1Nc1nc(Nc2cc(OC)ncc2C)ncc1C(F)(F)F", "101 to 500 nM"],
  ["C=CC(=O)Nc1cc(C)ccc1Nc1nc(Nc2cc(-c3c[nH]cn3)ccc2C)ncc1C(F)(F)F", "501 to 999 nM"],
  ["C=CC(=O)Nc1cc(C)ccc1Nc1nc(Nc2cc(OCCOC)ncc2C)ncc1C(F)(F)F", "101 to 500 nM"],
  ["C=CC(=O)Nc1cc(O[C@@H](C)C(=O)N2CCN(C(C)=O)CC2)ccc1Nc1nc(Nc2cc(OC)ncc2C)ncc1C(F)(F)F", "101 to 500 nM"],
  ["C=CC(=O)Nc1cc(C)ccc1Nc1nc(NC2CCC(=O)NC2)ncc1C(F)(F)F (racemic)", "101 to 500 nM"],
  ["C=CC(=O)Nc1cc(C)ccc1Nc1nc(Nc2cc(OC)ncc2C(F)F)ncc1C(F)(F)F", "501 to 999 nM"],
  ["C=CC(=O)Nc1cc(C)ccc1Nc1nc(Nc2ncc(F)c(OC)n2)ncc1C(F)(F)F", "501 to 999 nM"],
  ["C=CC(=O)Nc1cc(OC(F)(F)F)ccc1Nc1nc(Nc2cc(OC)ncc2C)ncc1C(F)(F)F", "101 to 500 nM"],
  ["C=CC(=O)Nc1cc(CN2CCN(C(C)=O)CC2)ccc1Nc1nc(Nc2nc(OC)ncc2C)ncc1C(F)(F)F", "101 to 500 nM"]
]}

Source listed as patent US9561228B2.
